experimentDescription: water-solubility at pH 6.5
Format: physicochemical
reportedEndpoint: solubility (µg/mL)

I. CCc1c(C(=O)NN2CCCCC2)nn(-c2ccc(Cl)cc2Cl)c1-c1ccc(Br)cc1
II. Cc1c(C(=O)NN2CCCCC2)nn(-c2ccc(Cl)cc2Cl)c1-c1ccc(Cl)cc1
**Query** Please let me know which one, I or II , has a lower measured solubility value. State the label of the item chosen.
**Result** II
